- measured-target: Human immunodeficiency virus type 1 protease (Human immunodeficiency virus 1)
- protocol-description: Evaluated for inhibition of Protease after CLND/MS correction from the crude mixture
assay-readout: IC50 (nM)

INSERT INTO assay_data (compound, assay_readout, unit_tag, recorded_value) VALUES
  ('C[C@H](C1=C(O)C(CCc2ccccc2)(C(=O)NCc2ccc(C(C)(C)C)cc2)OC1=O)c1ccccc1 (single isomer, unassigned)', 'IC50', 'nM', 1200);

1 = CC(C)=CCCC(C)C1=C(O)C(CCc2ccccc2)(C(=O)NC(C)(C)C)OC1=O (stereo not drawn)
2 = CC(C1=C(O)C(CCc2ccccc2)(C(=O)NC(C)(C)C)OC1=O)c1ccccc1 (stereo not drawn)
query: Of 1 and 2 , which carries the smaller reported IC50 figure? Reply briefly: the label of your chosen item.
result: 1
(1: 1300 nM, 2: 4100 nM)

* * *

- measured-target: Human immunodeficiency virus type 1 protease (Human immunodeficiency virus 1, UniProt Q72874)
- protocol-description: Inhibitory concentration against Protease
pIC50: −log10 of the molar value.
assay-readout: pIC50

I = CC(C1=C(O)[C@@](CCc2ccccc2)(C(=O)NCc2ccc(C(C)(C)C)cc2)OC1=O)c1ccccc1 (stereo partly drawn)
II = CC(C)(C)NC(=O)C1(CCc2ccccc2)OC(O)=C(CCc2ccccc2)C1=O (stereo not drawn)
query: Lower value of pIC50 belongs to which: I or II ? # respond with the chosen item's label
result: I

* * *

- measured-target: Human immunodeficiency virus type 1 protease (Human immunodeficiency virus 1, UniProt Q72874)
- protocol-description: Evaluated for inhibition of Protease after resynthesis and purification
assay-readout: IC50 (µM)

INSERT INTO measurements (molecule, assay_readout, unit_tag, recorded_value) VALUES
  ('C[C@H](C1=C(O)C(CCc2ccccc2)(C(=O)NCc2ccc(C(C)(C)C)cc2)OC1=O)c1ccccc1 (single isomer, unassigned)', 'IC50', 'µM', 4.6);

A = C[C@H](C1=C(O)[C@@](CCc2ccccc2)(C(=O)NCc2ccc(C(C)(C)C)cc2)OC1=O)c1ccccc1
B = CC(C)=CCCC(C)C1=C(O)C(CCc2ccccc2)(C(=O)NC(C)(C)C)OC1=O (centres undefined)
C = CC(C1=C(O)C(CCc2ccccc2)(C(=O)NC(C)(C)C)OC1=O)c1ccccc1 (centres undefined)
query: Order the items by recorded IC50; the first position goes to the largest value. Reply format: the labels, ordered as requested.
result: A, C, B
(A: 5.4 µM, C: 2 µM, B: 1.3 µM)

* * *

- measured-target: Human immunodeficiency virus type 1 protease (Human immunodeficiency virus 1)
- protocol-description: Evaluated for inhibition of Protease from the crude plate mixture
assay-readout: IC50 (µM)

a = CC(C)=CCCC(C)C1=C(O)C(CCc2ccccc2)(C(=O)NC(C)(C)C)OC1=O (configuration not stated)
b = CC(C1=C(O)C(CCc2ccccc2)(C(=O)NC(C)(C)C)OC1=O)c1ccccc1 (configuration not stated)
query: Two entries are listed, a and b . Which one carries the higher IC50? Answer = label.
result: a
(a: 15 µM, b: 6 µM)

* * *

- measured-target: Human immunodeficiency virus type 1 protease (Human immunodeficiency virus 1)
- protocol-description: Inhibitory concentration against Protease
assay-readout: IC50 (µM)

Here are 3 compounds together with their reported answers.
INSERT INTO assay_data (compound, unit_tag, recorded_value) VALUES
  ('CC(C)(C)NC(=O)C1(CCc2ccccc2)OC(O)=C(c2ccc(C(C)(C)C)cc2)C1=O (stereo unspecified)', 'µM', 17),
  ('CN(C(=O)OC(C)(C)C)C1=C(O)C(CCc2ccccc2)(C(=O)NCC2CCCO2)OC1=O (stereo unspecified)', 'µM', 193),
  ('CC1(C(=O)NC2CC2)OC(O)=C(CCc2ccccc2)C1=O (stereo unspecified)', 'µM', 294);

a = CC(C)(C)NC(=O)C1(CCc2ccccc2)OC(O)=C(c2c[nH]c3ccccc23)C1=O (stereo unspecified)
b = CN(C(=O)OC(C)(C)C)C1=C(O)C(CCc2ccccc2)(C(=O)NC(C)(C)C)OC1=O (stereo unspecified)
query: // compare: a vs b , metric IC50, want the smaller Label of pick, please.
result: b

1 = CC(C)=CCCC(C)C1=C(O)C(CCc2ccccc2)(C(=O)NC(C)(C)C)OC1=O (stereo unspecified)
2 = COCCNC(=O)C1(C)OC(O)=C(C(C)c2ccccc2)C1=O (stereo unspecified)
3 = CC(C)(C)NC(=O)C1(CCc2ccccc2)OC(O)=C(Cc2ccccc2)C1=O (stereo unspecified)
4 = CC(C)(C)NC(=O)C1(CCc2ccccc2)OC(O)=C(c2ccc(-c3ccccc3)cc2)C1=O (stereo unspecified)
query: I would appreciate it if you could sort these 4 compounds by IC50, starting from the smallest number. Response field: labels, in requested order.
result: 1, 3, 4, 2
(1: 1 µM, 3: 11 µM, 4: 27 µM, 2: 224 µM)

I = CC(C)(C)NC(=O)C1(C)OC(O)=C(CCc2ccccc2)C1=O (stereo unspecified)
II = CC(C1=C(O)C(C)(C(=O)NC(C)(C)C)OC1=O)c1ccccc1 (stereo unspecified)
III = CC(C1=C(O)C(CCc2ccccc2)(C(=O)NC(C)(C)C)OC1=O)c1ccccc1 (stereo unspecified)
IV = CC(C)=CCCC(C)C1=C(O)C(C)(C(=O)NC(C)(C)C)OC1=O (stereo unspecified)
V = CNC(=O)C1(C)OC(O)=C(C(C)c2ccccc2)C1=O (stereo unspecified)
query: // sort entries: IC50, high to low Field: ranking. Enter the labels in the order requested.
result: V, IV, II, I, III
(V: 244 µM, IV: 151 µM, II: 105 µM, I: 70 µM, III: 4 µM)

A = C[C@H](C1=C(O)C(CCc2ccccc2)(C(=O)NCc2ccc(C(C)(C)C)cc2)OC1=O)c1ccccc1 (single isomer, unassigned)
B = CC(C1=C(O)OC(C(=O)NCCc2ccc(Cl)cc2)(C(C)C)C1=O)c1ccccc1 (stereo unspecified)
query: Short answer wanted: higher IC50, A or B ? Choose, then provide that item's label.
result: A
(A: 84 µM, B: 31 µM)

* * *

- measured-target: Human immunodeficiency virus type 1 protease (Human immunodeficiency virus 1)
- protocol-description: Inhibitory concentration against Protease
pIC50: −log10 of the molar value.
Reported pIC50 values for a set of molecules

Sample records with pIC50:
INSERT INTO measurements (molecule, assay_readout, recorded_value) VALUES
  ('CNC1=C(O)C(CCc2ccccc2)(C(=O)NCC2CCCO2)OC1=O (stereo not given)', 'pIC50', '< 3.00'),
  ('COc1cc(CC2=C(O)C(CCc3ccccc3)(C(=O)NCC(C)(C)C)OC2=O)cc(OC)c1OC (stereo not given)', 'pIC50', '< 3.00'),
  ('CCCCNC(=O)C1(C)OC(O)=C(CCc2ccccc2)C1=O (stereo not given)', 'pIC50', '< 4.00'),
  ('COc1cc(CC2=C(O)C(C)(C(=O)NC(C)(C)C)OC2=O)cc(OC)c1OC (stereo not given)', 'pIC50', '< 3.00');

Now look at this one.
query: Give Human immunodeficiency virus type 1 protease (Human immunodeficiency virus 1) pIC50 for COc1cc(CC2=C(O)C(C)(C(=O)NC3CC3)OC2=O)cc(OC)c1OC (stereo not given)
result: < 3.00
